Assay: Displacement of [125I]CCL5 from HCMV US28 receptor
Parameters: species or system Human betaherpesvirus 5
Record form. Attribute: IC50. Fill in for each entry.
Give bare numbers, in µM.

# count of solved cases: 3
>  <Compound>
CN1CCN(CCCN2Cc3ccccc3CCc3ccccc32)CC1

>  <Value observed>
4.9

$$$$
>  <Compound>
OC1(c2ccc(Cl)cc2)CCN(CCCN(Cc2ccccc2)c2ccc(Cl)cc2)CC1

>  <Value observed>
1.8

$$$$
>  <Compound>
CCN1CCC[C@H]1CNC(=O)c1c(OC)ccc(I)c1O [IOLOPRIDE]

>  <Value observed>
0.3

$$$$

Query compound follows.
Sample NC1c2ccccc2CC1Cc1ccc(Cl)cc1Cl (stereo unspecified) ; IC50 observed: 9.5
